src = ChEMBL document CHEMBL2380276

System: MCF7
Assay Remarks: Cytotoxicity against human MCF7 cells assessed as growth inhibition after 72 hrs by MTT assay
Assay type: functional, cell-based
Test Settings: MCF7, 72 h
So I've got a bunch of molecules here, and I need their IC50 values.

Quick check: IC50 of O=C1Nc2cc(Br)ccc2/C1=N/NC(=S)N1CCN(c2ccccc2)CC1 ? 19.7 µM

Look up IC50: O=C1Nc2ccccc2/C1=N/NC(=S)Nc1ccccc1 > 100 µM

What value of measured IC50 is listed for O=C1Nc2ccc(Cl)cc2/C1=N/NC(=S)Nc1ccccc1 ? 35 µM

---

Test system: MCF7
Assay Remarks: Cytotoxicity against human MCF7 cells assessed as growth inhibition after 72 hrs by MTT assay
Type: functional, cell-based
Test Settings: MCF7, 72 h
Could you please report measured pIC50 for the items listed next?
// field semantics: pIC50 = negative decimal log of concentration (mol/L)

Lab note: need pIC50 for O=C1Nc2cc(Cl)ccc2/C1=N/NC(=S)N1CCN(c2ccccc2)CC1 on MCF7, anyone have it? 4.64

Tell me reported pIC50 for CCN(CC)CCNC(=O)c1c(C)[nH]c(/C=C2\C(=O)Nc3ccc(F)cc32)c1C [SUNITINIB] , tested with MCF7. 5.20

Return pIC50 measured with MCF7 given this compound: Cc1ccc(N2CCN(C(=S)N/N=C3\C(=O)Nc4ccc(Cl)cc43)CC2)cc1 4.77

Missing value: pIC50, MCF7, entry O=C1Nc2ccc(Cl)cc2/C1=N/NC(=S)N1CCN(c2ccc(Cl)cc2)CC1 . Fill in? 4.88
